Test System: 5-HT1A receptors (Rattus norvegicus, UniProt P19327)
Construct: fraction of membranes isolated from the cerebral cortex of rats
Sequence (P19327 whole entry): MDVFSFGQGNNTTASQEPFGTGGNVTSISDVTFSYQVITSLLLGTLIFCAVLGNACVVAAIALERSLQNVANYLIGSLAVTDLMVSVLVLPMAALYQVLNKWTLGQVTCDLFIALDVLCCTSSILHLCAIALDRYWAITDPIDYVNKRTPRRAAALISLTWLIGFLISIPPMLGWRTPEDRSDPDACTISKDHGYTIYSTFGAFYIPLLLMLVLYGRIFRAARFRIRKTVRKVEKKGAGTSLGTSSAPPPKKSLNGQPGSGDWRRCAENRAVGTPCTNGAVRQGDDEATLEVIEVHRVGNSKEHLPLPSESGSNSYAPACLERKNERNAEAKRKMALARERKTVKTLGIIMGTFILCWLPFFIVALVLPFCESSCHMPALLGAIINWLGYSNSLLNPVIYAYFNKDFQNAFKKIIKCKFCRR
Test Protocol: Tests for fixing to serotonin 5HT1A receptors, 3H-DPAT displacement
Measurement Context: membranes of rat cerebral cortex, 3H-DPAT 1 nM, 15 minutes at 37° C.
Where a name gives a salt, the structure may show the parent alone.
pKi values, listed per item
Bear in mind: pKi is minus log10 of a mol/L concentration; give just that figure.

The following compounds have reported results that may help.
OC(CCN1CCN(c2ccnc3ccccc23)CC1)c1csc2ccccc12 (centres unmarked) [Example 45, hydrochloride] ... 6.52
O=[N+]([O-])c1ccc2scc(C(O)CCN3CCN(c4cccc5c4OCCO5)CC3)c2c1 (centres unmarked) ... 7.85
OC(CCN1CCN(c2ccc3ncccc3c2)CC1)c1csc2ccccc12 (centres unmarked) ... 6.26
OC(CCN1CCN(c2cccc3c2OCCO3)CC1)c1csc2ccc(F)cc12 (centres unmarked) ... 8.22
OC(CCN1CCN(c2cccc3[nH]ccc23)CC1)c1csc2ccc(F)cc12 (centres unmarked) ... 8.23

Exam item: Using the record for Cl.OC(CCN1CCN(c2cccc3[nH]ccc23)CC1)c1csc2ccccc12 (centres unmarked) [Example 35, hydrochloride] , report its pKi.
Marked response: 8.26

Exam item: Proceed to Cc1ccc2cccc(N3CCN(CCC(O)c4csc5ccccc45)CC3)c2n1 (centres unmarked) [Example 36, hydrochloride]
Marked response: 7.99
